Attribution: patent US20240425589A1

Biological target: T1, recombinant human CD137 (Homo sapiens, UniProt Q07011)
T1 construct: made in house; host or cells: FreeStyle293F
T1 sequence (Q07011 with tags, fused parts or gaps): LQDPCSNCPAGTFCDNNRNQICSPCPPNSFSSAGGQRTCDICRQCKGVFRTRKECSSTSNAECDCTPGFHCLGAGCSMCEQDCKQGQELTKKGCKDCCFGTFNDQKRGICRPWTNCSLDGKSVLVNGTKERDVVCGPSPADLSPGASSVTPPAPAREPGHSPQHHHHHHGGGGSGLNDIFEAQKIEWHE
Assay: Biacore T200 SPR affinity of Dual-Fab antibodies to human CD137
Type: binding
Conditions: 37 degrees C, pH 7.4
Value Type: CD137 Koff (s⁻¹)
Give the number; s⁻¹ is assumed, so skip it.

QUERY: Supply reported CD137 Koff belonging to this molecule: H1610L0581: affinity matured Dual-Fab variant, VH SEQ ID NO 94, VL SEQ ID NO 143 (antibody, V domains shown) VH: QVQLVESGGGLVQPGRSLRLSCAASGFVFSNVWMHWVRQAPGKGLEWVAQIKDKWNAYAAYYAPSVKGRFTISRDDSKNSIYLQMNSLKTEDTAVYYCHYIHYASASTLLPAEGIDAWGQGTTVTVSS VL: DIVMTQSPLSLPVTPGEPASISCQPSQEVVHMNRNTYLHWYQQKPGQAPRLLIYKVSNRFPGVPDRFSGSGSGTDFTLKISRVEAEDVGVYYCAQGTSHPFTFGQGTKLEIK
RESULT: 0.0011

QUERY: Supply reported CD137 Koff belonging to this molecule: H1643L0581: affinity matured Dual-Fab variant, VH SEQ ID NO 95, VL SEQ ID NO 143 (antibody, V domains shown) VH: QVQLVESGGGLVQPGRSLRLSCAASGFKFSNVWFHWVRQAPGKGLEWVAQIKDYYNAYAAYYAPSVKGRFTISRDDSKNSIYLQMNSLKTEDTAVYYCHYVHYASASTLLPAEGVDAWGQGTTVTVSS VL: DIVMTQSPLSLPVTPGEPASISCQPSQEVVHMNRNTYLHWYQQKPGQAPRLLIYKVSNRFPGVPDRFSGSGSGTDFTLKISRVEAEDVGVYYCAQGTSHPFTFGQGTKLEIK
RESULT: 0.000606

QUERY: Supply reported CD137 Koff belonging to this molecule: H1651L0581: affinity matured Dual-Fab variant, VH SEQ ID NO 98, VL SEQ ID NO 143 (antibody, V domains shown) VH: QVQLVESGGGLVQPGRSLRLSCAASGFVFSNVWFHWVRQAPGKGLEWVAQIKDKYNAYADYYAPSVEGRFTISRDDSKNSIYLQMNSLKTEDTAVYYCHYVHYASASTLLPAEGVDAWGQGTTVTVSS VL: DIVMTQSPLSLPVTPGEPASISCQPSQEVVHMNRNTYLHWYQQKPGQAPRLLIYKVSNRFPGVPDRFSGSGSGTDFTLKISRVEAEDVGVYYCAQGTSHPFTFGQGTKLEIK
RESULT: 0.000603
